system: BT-549 breast; assay: NCI-60 one-dose screen, 48 h (100 = growth as untreated, 0 = no growth, -100 = all killed); conditions: 10 µM unless noted
About 83,000 compounds went through this panel and 20% of them were active in at least one assay; those are over-represented in the sample as a whole.
Think of 40% as a floor: if growth stands on it or above, it is Met; beneath it, Not met.

Qu. Reported growth reaches at least 40% for Cc1c(C)c(C)c([N+](=O)[O-])c([N+](=O)[O-])c1C ?
Ans. Met

Qu. Reported growth reaches at least 40% for O=C(CCCCCCc1nc2ccc(Br)cc2[nH]1)NO ?
Ans. Not met

Qu. Reported growth reaches at least 40% for CCOC(CN1CCN(CC(C)C(=O)c2ccccc2)CC1)c1ccccc1 (stereo unspecified) ?
Ans. Met

Qu. Reported growth reaches at least 40% for C=C(C)C1CCC2(C(=O)O)CCC3(C)C(CCC4C5(C)CCC(O)C(C)(C)C5CCC43C)C12 (stereo unspecified) ?
Ans. Not met

Qu. Reported growth reaches at least 40% for COC(=O)c1cc(Cl)cc([N+](=O)[O-])c1O ?
Ans. Met

Qu. Reported growth reaches at least 40% for NC(=O)Nc1ccc2ncnc(Nc3cccc(O)c3)c2c1 ?
Ans. Met

Qu. Reported growth reaches at least 40% for Cc1c(-c2ccc(-c3ccccc3F)cc2)nc2ccc(F)cc2c1C(=O)O ?
Ans. Met

Qu. Reported growth reaches at least 40% for O=C(O)/C=C(\c1nc2ccc([N+](=O)[O-])cc2[nH]1)c1cc(Cl)ccc1O ?
Ans. Not met

Qu. Reported growth reaches at least 40% for Cc1cc(C)cc(Nc2cc(C)nc3nc(C(F)(F)F)nn23)c1 ?
Ans. Met

----------
system: 786-0 renal; assay: NCI-60 one-dose screen, 48 h (100 = growth as untreated, 0 = no growth, -100 = all killed); conditions: 10 µM unless noted
About 83,000 compounds went through this panel and 20% of them were active in at least one assay; those are over-represented in the sample as a whole.
MEASURED ENDPOINT: growth (%)
The answer is to be given in %; state only the numeric part.

Qu. Which growth value is on record for CN1CCN(Cc2ccc(NC(=O)c3cncc(C#Cc4ncc5cnccn45)c3)cc2C(F)(F)F)CC1 ?
Ans. 71.5

Qu. Which growth value is on record for C[C@@H]1C[C@H](N)C[C@H](c2ccncc2NC(=O)c2ccc(F)c(-c3c(F)cccc3F)n2)C1 ?
Ans. 56.1

Qu. Which growth value is on record for N#Cc1nc(-c2ccc(Cl)cc2)cc(-c2ccc(Nc3nc(N4CCCCC4)nc(N4CCCCC4)n3)cc2)c1N ?
Ans. 103

Qu. Which growth value is on record for Oc1ccc(CCCCCCc2ccc(O)cc2)cc1 ?
Ans. 14.2

Qu. Which growth value is on record for Cc1cc(C)cc(NC(=O)Cn2nncc2CN2C(=O)CSC2=O)c1 ?
Ans. 108

Qu. Which growth value is on record for Cc1n(Cc2ccc3ccccc3n2)cc[n+]1Cc1ccc2ccccc2c1 ?
Ans. 63.3

Qu. Which growth value is on record for Cc1cc(C)c([O-])c(CN(C)CCN(C)Cc2cc(C)cc(C)c2[O-])c1.O=C([O-])c1cccc(C(=O)[O-])n1.[Ti+4] ?
Ans. 11.9

Qu. Which growth value is on record for C#CC[C@@H]1C[C@]2(C)[C@H]3CC=C4[C@H]5[C@@H](C)[C@H](C)CC[C@]5(C(=O)NCCCCN)CC[C@@]4(C)[C@]3(C)CC[C@H]2C(C)(C)[C@H]1OC(C)=O ?
Ans. 79.9

----------
Test system: HCT-15 colon
Assay: NCI-60 one-dose screen, 48 h
Settings: 10 µM unless noted
Protocol: Growth inhibition of the HCT-15 human tumor cell line is measured as a screen for anti-cancer activity. Cells are grown in 96 well plates and exposed to the test compound for 48 hours. Compounds are tested at a single concentration, which is 10^-5 M for most compounds. The reported endpoint is percent growth (GI% or GIPRCNT), where numbers from 0 - 100% represent growth inhibition, and numbers from -100% - 0 represent cell death. For example, a value of 40 represents 60% growth inhibition. […]
The panel holds about 83,000 compounds, 20% with a hit somewhere; the sample as a whole holds those more often. Activity calls are given as the source filed them. Rule for the calls: active = growth percent below 10; inactive = the rest.
API: response.call in active, inactive

Qu. Test call for this compound, please: CCN(CC)CCCC(C)Nc1cnc(C(=O)Nc2ccc(Cl)c3cccnc23)cn1 (stereo unspecified)
Ans. active

Qu. Test call for this compound, please: Cc1ccc(NC(=O)c2[nH]c(SCCN(C)C)nc2-c2ccc(F)cc2)cc1Nc1ccc2ncn(C)c(=O)c2c1
Ans. inactive

Qu. Test call for this compound, please: Cn1c(=O)c2[nH]c(Cc3ccc4c(c3)OCO4)nc2n(C)c1=O
Ans. inactive

Qu. Test call for this compound, please: CSCCC1NC(=O)C(C(C)=Nc2ccccc2)=C1O (stereo unspecified)
Ans. inactive

Qu. Test call for this compound, please: O=C(C(=O)c1cccnc1)c1cccnc1
Ans. inactive

Qu. Test call for this compound, please: Fc1[nH]nc2ccc([C@@H]3Nc4ccc5[nH]ncc5c4[C@H]4C5CCC(C5)[C@@H]34)cc12 (stereo partly specified)
Ans. inactive

Qu. Test call for this compound, please: COc1cccc(/C=N/N=C(N)N)c1
Ans. inactive

Qu. Test call for this compound, please: Cc1c(-c2ccc(-c3ccccc3F)cc2)nc2ccc(F)cc2c1C(=O)O
Ans. inactive

Qu. Test call for this compound, please: CCn1c(CN2CCN(Cc3ccccc3)CC2)nc2cc(NC(=O)c3cccs3)ccc21
Ans. active

Qu. Test call for this compound, please: COc1cc(C)c2c(=O)c3c(oc2c1)C(=O)c1c(O)c(OC)cc(O)c1C3=O
Ans. active

Qu. Test call for this compound, please: O=C1C=CC(=O)N1c1cccc(N2C(=O)C=CC2=O)c1
Ans. inactive

Qu. Test call for this compound, please: COc1ccc(C(=O)/C=C/c2cn(-c3ccccc3)nc2-c2cccc(Nc3ccnc4cc(Cl)ccc34)c2)cc1
Ans. inactive

Qu. Test call for this compound, please: CCCCNCCC(O)c1cc2ccc(C(F)(F)F)cc2c2cc(C(F)(F)F)ccc12 (stereo unspecified)
Ans. active

Qu. Test call for this compound, please: COc1cccc(NC(=O)[C@H](C(C)C)n2c(=O)[nH]c3ccccc3c2=O)c1
Ans. inactive

Qu. Test call for this compound, please: C[C@@H]1C[C@H](N)C[C@H](c2ccncc2NC(=O)c2ccc(F)c(-c3c(F)cccc3F)n2)C1
Ans. inactive

Qu. Test call for this compound, please: CCN(CC)CCC(CNc1ccnc2cc(Cl)ccc12)c1ccc(O)cc1 (stereo unspecified)
Ans. inactive

Qu. Test call for this compound, please: NC(=S)N/N=C(/c1cccs1)C1CC1
Ans. inactive

Qu. Test call for this compound, please: COCCOCCOCc1n(Cc2ccc3ccccc3n2)c2ccccc2[n+]1Cc1ccc2ccccc2c1
Ans. inactive

Qu. Test call for this compound, please: C=C(C)C1CCC2(C(=O)O)CCC3(C)C(CCC4C5(C)CCC(O)C(C)(C)C5CCC43C)C12 (stereo unspecified)
Ans. inactive

Qu. Test call for this compound, please: CC(C)=CCC[C@H](C)c1ccc(C)c2c1OCN(CCO)C2
Ans. inactive

Qu. Test call for this compound, please: N#Cc1c(NN)n(C2OC(CO)C(O)C2O)c2ncnc(N)c12 (stereo unspecified)
Ans. active

----------
Tested on: SF-539 CNS
Test: NCI-60 one-dose screen, 48 h
Settings: 10 µM unless noted
Experimental: Cells are grown in 96 well plates and exposed to the test compound for 48 hours. Compounds are tested at a single concentration, which is 10^-5 M for most compounds. The reported endpoint is percent growth (GI% or GIPRCNT), where numbers from 0 - 100% represent growth inhibition, and numbers from -100% - 0 represent cell death. For example, a value of 40 represents 60% growth inhibition. A value of 0 means no net growth occurred over the course of the experiment. […]
This is part of a sample that, as a whole, favours compounds with a hit. Of some 83,000 tested, about 20% had one in any assay. The source made the active and inactive calls. Rule for the calls: active = growth percent below 10; inactive = the rest.
API: response.call in active, inactive

Qu. Test call for this molecule, please: Cc1ccc2cc3c(NC(=O)c4cccnc4)nn(C)c3nc2c1
Ans. inactive

Qu. Test call for this molecule, please: CC1CN(CCCOC(=O)Nc2ccc(Cl)cc2)CCN1C(C)(C)C (stereo not given)
Ans. inactive

Qu. Test call for this molecule, please: C=CCn1c(C)nc2cc(Nc3nc(Nc4ccc5nc(C)n(CC=C)c5c4)nc4ccccc34)ccc21
Ans. inactive

Qu. Test call for this molecule, please: c1ccc(C(CC2=NCCCN2)c2ccccc2)cc1
Ans. inactive

Qu. Test call for this molecule, please: O=C(Cc1ccc(Nc2ccnc(C(F)(F)F)c2)cc1)N/N=C/c1ccccc1O
Ans. inactive

Qu. Test call for this molecule, please: COc1cccc2nc(Nc3cccc(NC(=O)c4ccc(N5CCN(C)CC5)c(C(F)(F)F)c4)c3)ccc12
Ans. active

Qu. Test call for this molecule, please: COc1ccc(-c2oc(=O)ccc2-c2cc(OC)c(OC)c(OC)c2)cc1F
Ans. inactive

Qu. Test call for this molecule, please: COc1ccc(C2C3CCc4ccccc4C3=NN2C(=O)c2cc(OC)c(OC)c(OC)c2)cc1O (stereo not given)
Ans. inactive

Qu. Test call for this molecule, please: CCCc1n(Cc2ccc3ccccc3n2)cc[n+]1Cc1ccc2ccccc2n1
Ans. inactive

Qu. Test call for this molecule, please: NC(N)=N/N=C\c1ccc(OCc2ccccc2)cc1
Ans. inactive
